tested on: OVCAR-8; assay: NCI tumour cell line growth inhibition, 48 h
Active and inactive are the calls of the source. No stated cut-off is given here; in the data, active = GI50 up to about 1.1 µM and inactive = higher.
Readout Type: GI50

Query :: Would you kindly share the measured GI50 for O=C1CCC2(c3ccccc3)Nc3ncccc3N12 (stereo unspecified) ?
Result :: > 100 µM (inactive)

Query :: Now this one: C=C(CCOC)CCC1CCCCC(=C)[C@H]1OC(C)=O (stereo partly specified)
Result :: > 100 µM (inactive)

Query :: Now this one: COc1cc(C)c2c(c1)CN1CN2Cc2cc(OC)cc(C)c21
Result :: 85.7 µM (inactive)

Query :: Now this one: CC/C(C)=C1\CCC(CN2CCOCC2)C1=O (stereo unspecified)
Result :: 20.7 µM (inactive)

Query :: Now this one: NC(=O)NC(=O)c1cccc(NC(=O)CCl)c1
Result :: 2.22 µM (inactive)

Query :: Now this one: O=c1cc(/N=N/c2ccc(O)cc2)[nH]c(=O)[nH]1
Result :: > 100 µM (inactive)

Attribution: ChEMBL document CHEMBL1201862
